- system_tested: UniProt P29597
- Sequence (P29597 whole entry): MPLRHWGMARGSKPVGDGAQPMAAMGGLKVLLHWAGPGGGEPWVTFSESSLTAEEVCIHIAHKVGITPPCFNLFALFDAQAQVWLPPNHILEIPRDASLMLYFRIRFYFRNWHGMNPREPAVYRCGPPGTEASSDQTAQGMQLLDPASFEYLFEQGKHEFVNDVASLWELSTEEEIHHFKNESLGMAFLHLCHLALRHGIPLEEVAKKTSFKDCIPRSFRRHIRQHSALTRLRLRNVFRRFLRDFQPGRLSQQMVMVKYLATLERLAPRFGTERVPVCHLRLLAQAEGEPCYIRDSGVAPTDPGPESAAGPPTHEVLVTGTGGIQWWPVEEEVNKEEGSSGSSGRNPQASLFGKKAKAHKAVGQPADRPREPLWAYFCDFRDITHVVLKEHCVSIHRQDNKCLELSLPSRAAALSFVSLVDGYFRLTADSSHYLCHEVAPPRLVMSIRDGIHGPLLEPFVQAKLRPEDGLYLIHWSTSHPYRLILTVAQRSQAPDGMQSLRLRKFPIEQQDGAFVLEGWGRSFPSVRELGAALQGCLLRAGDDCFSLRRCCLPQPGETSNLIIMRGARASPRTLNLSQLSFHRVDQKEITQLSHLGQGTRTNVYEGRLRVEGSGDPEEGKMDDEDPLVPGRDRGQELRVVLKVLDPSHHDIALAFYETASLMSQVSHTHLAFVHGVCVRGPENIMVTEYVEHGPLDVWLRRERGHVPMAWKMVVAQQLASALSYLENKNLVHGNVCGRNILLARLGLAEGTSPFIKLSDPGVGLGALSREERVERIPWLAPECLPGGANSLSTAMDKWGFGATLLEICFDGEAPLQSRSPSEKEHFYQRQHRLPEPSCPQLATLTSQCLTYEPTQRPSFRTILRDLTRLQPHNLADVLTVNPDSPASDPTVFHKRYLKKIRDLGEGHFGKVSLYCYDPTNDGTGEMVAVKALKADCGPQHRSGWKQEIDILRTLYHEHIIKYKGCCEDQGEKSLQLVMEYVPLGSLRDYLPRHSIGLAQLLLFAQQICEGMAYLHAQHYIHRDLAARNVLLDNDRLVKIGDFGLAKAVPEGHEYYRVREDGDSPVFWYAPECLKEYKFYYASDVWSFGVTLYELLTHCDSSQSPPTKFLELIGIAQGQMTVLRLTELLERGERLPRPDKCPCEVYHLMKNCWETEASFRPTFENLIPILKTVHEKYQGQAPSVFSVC
- assay_notes: TYK2 (TYK2/JAK2 PSTAT4 T-BLAST) Alpha Screen Assay
property_label: EC50 (nM)

COCc1cc(-c2cn(C)c3cnc(NC(C)=O)cc23)nc([C@@]2(OC)CCOC2)c1 [US20190276450, Example 2.4]: 699
CNC(=O)Nc1cc2c(-c3cccc([C@]4(OC)CCOC4)n3)cn(C)c2cn1 [US20190276450, Example 1a.2]: 288
COCCOc1cc(-c2cn(C)c3cnc(NC(C)=O)cc23)nc([C@]2(OC)CCOC2)c1 [US20190276450, Example 25]: 25

a. Cn1cc(-c2cncc([C@]3(C)CCOC3)n2)c2cc(NC(N)=O)ncc21 [US20190276450, Example 1b.5]
b. CC[C@@]1(c2cccc(-c3cn(C)c4cnc(NC(C)=O)cc34)n2)CCOC1 [US20190276450, Example 2.3]
c. CO[C@]1(c2cc(C#N)cc(-c3cn(C)c4cnc(NC(N)=O)cc34)n2)CCOC1 [US20190276450, Example 12.2]
d. NC(=O)Nc1cc2c(-c3cccc(C4(O)COC4)n3)cn([C@H]3CCOC3)c2cn1 [US20190276450, Example 15.2]
e. CO[C@]1(c2cc(C(F)F)cc(-c3cn(C)c4cnc(NC(C)=O)cc34)n2)CCOC1 [US20190276450, Example 2.7]
Task: Number of compounds to sort: 5. Sort criterion: EC50, ascending. Reply with the labels, ordered as the question asks.
Output: a, b, e, c, d
(a: 18 nM, b: 96 nM, e: 254 nM, c: 551 nM, d: 1840 nM)

A. CC[C@]1(c2cccc(-c3cn(C)c4cnc(NC(C)=O)cc34)n2)CCOC1 [US20190276450, Example 2.3a]
B. CO[C@@]1(c2cccc(-c3cn(C4(F)COC4)c4cnc(NC(C)=O)cc34)n2)CCOC1 [US20190276450, Example 18a]
Task: EC50 comparison. Which is larger, A or B ? Refer to your chosen item by its label in the answer.
Output: A
